target: Acetylcholinesterase (Homo sapiens, UniProt P22303); assay: In vitro inhibitory concentration against purified Acetylcholinesterase of human erythrocytes; value ranges from 91.8-732
Sequence (P22303 whole entry): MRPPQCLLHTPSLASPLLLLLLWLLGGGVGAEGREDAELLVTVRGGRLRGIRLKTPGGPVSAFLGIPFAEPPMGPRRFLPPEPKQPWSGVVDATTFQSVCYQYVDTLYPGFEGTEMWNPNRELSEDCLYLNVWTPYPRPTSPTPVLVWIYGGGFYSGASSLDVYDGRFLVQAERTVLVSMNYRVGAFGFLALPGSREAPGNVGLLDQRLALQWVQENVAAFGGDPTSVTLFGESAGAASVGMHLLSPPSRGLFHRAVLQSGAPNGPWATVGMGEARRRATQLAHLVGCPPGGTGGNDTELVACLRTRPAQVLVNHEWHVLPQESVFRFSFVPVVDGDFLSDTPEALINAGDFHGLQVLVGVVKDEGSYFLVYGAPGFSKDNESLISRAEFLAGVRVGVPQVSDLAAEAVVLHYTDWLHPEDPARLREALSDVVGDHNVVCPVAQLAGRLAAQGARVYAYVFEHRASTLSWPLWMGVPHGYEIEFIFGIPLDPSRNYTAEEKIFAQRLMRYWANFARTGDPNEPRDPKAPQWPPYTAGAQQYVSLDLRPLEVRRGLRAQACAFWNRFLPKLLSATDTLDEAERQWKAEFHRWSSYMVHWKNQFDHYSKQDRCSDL
property name: IC50
Respond with the figure and its unit, in that order.

GET /values?readout=IC50&item= C#CCN(C)C(C)Cc1cccc(OC(=O)N(C)CC)c1 (stereo unspecified)
234 µM

---

Biological target: Amine oxidase [flavin-containing] B (Rattus norvegicus, UniProt P19643)
Sequence (P19643 whole entry): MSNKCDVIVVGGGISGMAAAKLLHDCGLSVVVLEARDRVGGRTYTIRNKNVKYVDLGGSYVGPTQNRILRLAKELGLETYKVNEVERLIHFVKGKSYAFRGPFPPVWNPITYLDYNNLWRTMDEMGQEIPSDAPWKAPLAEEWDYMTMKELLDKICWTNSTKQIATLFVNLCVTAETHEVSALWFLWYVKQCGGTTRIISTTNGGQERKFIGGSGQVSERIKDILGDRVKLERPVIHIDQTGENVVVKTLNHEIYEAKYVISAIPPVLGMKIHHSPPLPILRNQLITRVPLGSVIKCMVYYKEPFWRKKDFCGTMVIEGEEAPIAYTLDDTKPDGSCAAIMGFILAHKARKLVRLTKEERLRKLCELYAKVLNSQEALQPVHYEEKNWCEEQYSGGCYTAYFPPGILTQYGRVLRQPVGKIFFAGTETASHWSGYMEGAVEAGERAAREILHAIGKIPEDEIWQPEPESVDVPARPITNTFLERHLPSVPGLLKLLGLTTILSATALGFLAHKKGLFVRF
Assay: In vitro inhibitory concentration against Monoamine oxidase B of rat brain homogenates; value ranges from 0.2-0.8
Type: tissue-based
property name: IC50

Write down the reported IC50 of C#CCNC(C)Cc1cccc(OC(=O)N(C)CCCC)c1 (stereo unspecified) , test system: Amine oxidase [flavin-containing] B (Rattus norvegicus, UniProt P19643).
400 nM

---

biological target: Acetylcholinesterase (Homo sapiens); test: In vitro inhibitory concentration against purified Acetylcholinesterase of human erythrocytes; value ranges from 0.44-0.49
property name: IC50 (nM)
One number for each entry, in nM.

GET /values?readout=IC50&item= CN(C)C(=O)Oc1cccc2c1C(N)CC2 (stereo unspecified)
460

---

biological target: Amine oxidase [flavin-containing] A (Rattus norvegicus, UniProt P21396); assay: In vitro inhibitory concentration against Monoamine oxidase A of rat brain homogenates; assay type: tissue-based
Sequence (P21396 whole entry): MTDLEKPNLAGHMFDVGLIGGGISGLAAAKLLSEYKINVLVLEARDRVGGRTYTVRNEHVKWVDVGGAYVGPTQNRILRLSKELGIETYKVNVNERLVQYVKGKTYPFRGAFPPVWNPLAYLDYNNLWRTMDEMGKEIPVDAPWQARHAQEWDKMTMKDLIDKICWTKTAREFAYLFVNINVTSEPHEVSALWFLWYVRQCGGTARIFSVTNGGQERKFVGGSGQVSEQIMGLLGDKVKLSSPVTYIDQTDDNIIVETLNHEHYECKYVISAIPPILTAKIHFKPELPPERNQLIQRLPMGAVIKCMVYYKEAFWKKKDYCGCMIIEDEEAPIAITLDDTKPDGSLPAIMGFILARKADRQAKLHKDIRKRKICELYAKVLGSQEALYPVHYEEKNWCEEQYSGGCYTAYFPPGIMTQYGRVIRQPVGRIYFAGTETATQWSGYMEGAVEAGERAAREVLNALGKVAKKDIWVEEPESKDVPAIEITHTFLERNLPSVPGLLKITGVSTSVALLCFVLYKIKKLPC
What IC50 was measured for each of the following?
Give bare numbers, in µM.

{"compound": "CCCN(C)C(=O)Oc1cccc2c1C(N)CC2 (stereo not drawn)", "IC50, µM": 1000}

Here is the next item to consider.
GET /values?readout=IC50&item= CCN(C)C(=O)Oc1ccc2c(c1)C(N)CCC2 (stereo not drawn)
1000

---

biological target: Butyrylcholinesterase (Equus caballus); assay: In vitro inhibitory concentration against Butyrylcholinesterase of horse serum; value ranges from 0.23-0.26
Sequence (Q9N1N9 whole entry): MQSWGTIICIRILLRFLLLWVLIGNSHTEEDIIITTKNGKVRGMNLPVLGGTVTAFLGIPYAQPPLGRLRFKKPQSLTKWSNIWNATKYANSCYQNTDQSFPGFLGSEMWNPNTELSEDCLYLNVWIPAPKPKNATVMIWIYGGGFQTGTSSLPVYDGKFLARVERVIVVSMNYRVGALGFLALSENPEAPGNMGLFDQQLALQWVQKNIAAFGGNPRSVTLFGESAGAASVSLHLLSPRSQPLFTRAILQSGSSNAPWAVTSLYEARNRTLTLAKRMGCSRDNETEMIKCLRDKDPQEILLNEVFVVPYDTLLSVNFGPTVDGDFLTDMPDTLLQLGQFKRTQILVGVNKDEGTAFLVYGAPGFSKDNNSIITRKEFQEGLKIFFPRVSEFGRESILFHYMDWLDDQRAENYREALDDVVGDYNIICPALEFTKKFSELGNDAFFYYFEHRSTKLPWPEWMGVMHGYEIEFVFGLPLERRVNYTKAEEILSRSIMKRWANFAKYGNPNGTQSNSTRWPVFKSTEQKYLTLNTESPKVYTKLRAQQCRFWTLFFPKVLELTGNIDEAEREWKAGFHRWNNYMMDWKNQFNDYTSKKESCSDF
property name: IC50 (nM)
One number for each entry, in nM.

GET /values?readout=IC50&item= C#CC(C)NCCc1cccc(OC(=O)N(C)C)c1 (stereo unspecified)
240

---

test: Bimolecular rate constant for carbamoylation of ACHE; assay type: ADME
property name: Bimolecular carbamoylation rate constant (ki)
Respond with the figure and its unit, in that order.

{"compound": "C#CCN(C)C(C)Cc1cccc(OC(=O)N(C)CCCCCC)c1 (centres undefined)", "recorded result": "17.25 M⁻¹ s⁻¹"}

Please look at the items below and tell me Bimolecular carbamoylation rate constant (ki) for each one, in order.
1. CCN(C)C(=O)Oc1cccc([C@H](C)N(C)C)c1 [RIVASTIGMINE]
2. C#CCNC1CCc2c(Cl)cc(OC(=O)N(C)CCC)cc21.Cl (centres undefined)

1. 23.87 M⁻¹ s⁻¹
2. 0.983 M⁻¹ s⁻¹

GET /values?readout=Bimolecular carbamoylation rate constant (ki)&item= "C#CCN[C@@H]1CCc2ccc(OC(=O)N(C)CC)cc21.Cl"
1.7 M⁻¹ s⁻¹
